biological target: human CCR8 (human, UniProt P51685 1-355); assay: cell-based or functional assay
endpoint-name: residual hCCL1 (100 nM) Gi2 response, protocol #2, mAb 10 µg/mL (%)
Unit % implied. Number only.

Some solved entries appear below for comparison.
[[record]]
binder = "anti-CCR8 mAb 1-17 (antibody, V domains shown, Murine hybridoma mAb) VH: QVQLQQPGSELVRPGASVKLSCKASGYTFTSYWMHWVKQRPGQGLEWIGNIWPGSASTNYDEKFKNKATLTVDTSSSTAYMQLSSLTSEDSAVYYCIRGGKGAMDYWSQGTSVTVSS VL: DVVMTQIPLSLPVSLGDQASISCRSSQSLENSYGNTYLNWYLQKPGQSPQLLIYRVSNRFSGVLDRFSGSGSGTDFTLKISRVEAEDLGVYFCLQVTHVPPTFGAGTKLELK"
measurement_unit = "%"
test_result = 56

[[record]]
binder = "anti-CCR8 mAb 1-22 (antibody, human IgG1, kappa, V domains shown, Humanized mAb, human IgG1 / kappa) VH: EVQLLESGGGLVQPGGSLRLSCAASGFTFNAYAMNWVRQAPGKGLEWVARIRSKSNDYATYYGDSVKGRFTISRDNSKNTLYLQMNSLRAEDTAVYYCVRGREAYYRYDGGYYAMDVWGQGTTVTVSS VL: DIVMTQSPLSLPVTPGEPASISCRSSKSLLHSNGNTYLYWFLQKPGQSPQLLIYRVSNLASGVPDRFSGSGSGTDFTLKISRVEAEDVGVYYCMQHREYPFTFGQGTKLEIKR"
measurement_unit = "%"
test_result = 31


Give residual hCCL1 (100 nM) Gi2 response, protocol #2, mAb 10 µg/mL for anti-CCR8 mAb 1-24 (antibody, human IgG1, kappa, V domains shown, Humanized mAb, human IgG1 / kappa) VH: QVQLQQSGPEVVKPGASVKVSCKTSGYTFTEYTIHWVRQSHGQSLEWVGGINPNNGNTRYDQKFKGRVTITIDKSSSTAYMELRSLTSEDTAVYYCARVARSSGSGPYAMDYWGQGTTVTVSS VL: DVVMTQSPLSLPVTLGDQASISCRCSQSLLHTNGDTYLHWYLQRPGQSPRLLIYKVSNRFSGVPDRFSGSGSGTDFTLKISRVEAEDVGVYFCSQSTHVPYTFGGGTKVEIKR
41

Note residual hCCL1 (100 nM) Gi2 response, protocol #2, mAb 10 µg/mL for the binder shown: anti-CCR8 mAb 1-23 (antibody, human IgG1, kappa, V domains shown, Humanized mAb, human IgG1 / kappa) VH: QVQLVQSGPEVVKPGASVKVSCKTSGYTFTEYTIHWVRQAPGQSLEWVGGINPNNGNTRYDQKFQGRVTITRDKSASTAYMELRSLTSEDTAVYYCARVARSSGSGPYAMDYWGQGTTVTVSS VL: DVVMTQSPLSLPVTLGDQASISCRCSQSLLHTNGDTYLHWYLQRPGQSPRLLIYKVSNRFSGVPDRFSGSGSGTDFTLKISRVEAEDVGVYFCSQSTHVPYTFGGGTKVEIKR
32

Give the value of residual hCCL1 (100 nM) Gi2 response, protocol #2, mAb 10 µg/mL reported for the following: anti-CCR8 mAb 1-18 (antibody, V domains shown, Murine hybridoma mAb) VH: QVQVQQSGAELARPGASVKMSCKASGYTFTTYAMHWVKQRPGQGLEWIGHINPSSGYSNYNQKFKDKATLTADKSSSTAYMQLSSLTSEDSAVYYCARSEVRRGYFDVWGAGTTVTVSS VL: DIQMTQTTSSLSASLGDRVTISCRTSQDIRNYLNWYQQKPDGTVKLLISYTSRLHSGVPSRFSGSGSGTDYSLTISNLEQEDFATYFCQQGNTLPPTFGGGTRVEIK
53
